Source listed as patent US10538555B2.

# experimental system: Human PD-L1/PD-1 (Homo sapiens, UniProt Q9NZQ7)
# Construct: TVMV protease cleavage site (C); made in house; host or cells: HEK293T cells
# Sequence (Q9NZQ7 with tags, fused parts or gaps): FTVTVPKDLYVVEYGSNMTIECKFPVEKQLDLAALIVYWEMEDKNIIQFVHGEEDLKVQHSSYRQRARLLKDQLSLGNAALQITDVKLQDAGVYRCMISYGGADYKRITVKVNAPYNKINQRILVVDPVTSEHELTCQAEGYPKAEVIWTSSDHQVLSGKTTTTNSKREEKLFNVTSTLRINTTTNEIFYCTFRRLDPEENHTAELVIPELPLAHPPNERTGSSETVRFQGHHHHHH
# assay remarks: HTRF Human PD-L1/PD-1 binding assay (PD-1-Ig/PD-L1-His)
# stated conditions: PD-L1-His 10 nM, PD-1-Ig 20 nM; class symbol; read-out: HTRF Human PD-L1/PD-1 Binding Assay IC50 Range
pIC50: −log10 of the molar value. Where a SMILES comes first, the peptide text is derived from it. Bridges are numbered along the chain shown (N, C = ends). [ ]: non-standard residue; d: D form. ξ: configuration not given here. Phe(4-F) = N[C@@H](Cc1ccc(F)cc1)C(=O)O; NMeIle(3ξ) = CCC(C)[C@H](NC)C(=O)O; NMeF = CN[C@@H](Cc1ccccc1)C(=O)O; NMeNle = CCCC[C@H](NC)C(=O)O
observed property: pIC50

Input: Supply measured pIC50 of CCCC[C@H]1C(=O)N2CCC[C@@H]2C(=O)N[C@@H](CC(=O)O)C(=O)N[C@@H](C(C)C)C(=O)N(C)[C@@H](C(C)CC)C(=O)N[C@@H](CCC(N)=O)C(=O)N2CCC[C@@H]2C(=O)N[C@@H](Cc2c[nH]c3ccccc23)C(=O)N[C@@H](Cc2ccc(O)cc2)C(=O)N[C@@H](CC(C)C)C(=O)N[C@H](C(=O)NCC(N)=O)CSCC(=O)N[C@@H](Cc2ccc(F)cc2)C(=O)N(C)[C@@H](Cc2ccccc2)C(=O)N1C (stereo partly shown) [Example 9260] ({CH2CO}-[Phe(4-F)][NMeF][NMeNle][dP]DV[NMeIle(3ξ)]Q[dP]WYLCG-NH2; thioether N-13) in your reply.
Output: 5.00 to 6.00
